biological target: HLA-B*44:02; test: IEDB peptide-MHC binding, purified MHC/competitive/radioactivity; filed as Kd, often an IC50 or EC50 that approximates it; bounds were set here for any values at or beyond the usual limits of such assays; conditions: source organism: Dengue virus 4 Philippines/H241/1956
# Kd per record follows
Please give a number only; it is taken to be in nM.

Enquiry: Given the entry `VEGVSGGAW` , what Kd was observed with HLA-B*44:02?
Return: 151

Enquiry: Form field: Kd recorded for `NEELITEQM` with HLA-B*44:02 (enter value)
Return: 281

Enquiry: What is its Kd for HLA-B*44:02? Entry: `REDLWCGSLI`
Return: 256
